assay system: NAD-dependent protein deacylase sirtuin-6 (Homo sapiens, UniProt Q8N6T7)
Sequence (Q8N6T7 whole entry): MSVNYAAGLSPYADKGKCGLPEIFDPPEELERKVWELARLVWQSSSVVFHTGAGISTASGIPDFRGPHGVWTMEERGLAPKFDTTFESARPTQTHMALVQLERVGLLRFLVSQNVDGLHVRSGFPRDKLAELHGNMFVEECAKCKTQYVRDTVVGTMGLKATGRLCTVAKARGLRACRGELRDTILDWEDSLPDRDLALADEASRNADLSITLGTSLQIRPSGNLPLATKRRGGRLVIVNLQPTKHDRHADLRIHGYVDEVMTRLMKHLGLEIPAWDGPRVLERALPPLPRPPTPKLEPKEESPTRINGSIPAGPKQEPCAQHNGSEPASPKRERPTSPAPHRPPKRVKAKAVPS
procedure details: Inhibition of human recombinant SIRT6 deacetylase activity using Arg-His-Lys-Lys(AC)-AMC as a substrate by […] assay
property: pIC50
Recall that pIC50 is obtained by taking minus log10 of the concentration measured in molar.

Some solved cases for reference:
Cn1c(=O)c2cc(S(=O)(=O)Nc3ccc(Cc4ccncc4)cc3)ccc2n(C)c1=O : 4.42
O=c1[nH]c(=O)c2cc(S(=O)(=O)NC3CCN(Cc4ccccc4)C3)ccc2[nH]1 (configuration not stated) : 3.29
O=C1CCc2cc(S(=O)(=O)Nc3ccc(Oc4cccnc4)cc3)ccc2N1 : 3.56

Lookup: Would you mind telling me what pIC50 value was observed for O=S(=O)(Nc1ccc(Oc2cccnc2)cc1)c1ccccc1 ?
Found: 3.52

Lookup: Would you mind telling me what pIC50 value was observed for O=c1[nH]c(=O)c2cc(S(=O)(=O)Nc3cccc(CCc4ccncc4)c3)ccc2[nH]1 ?
Found: 4.26

Lookup: Would you mind telling me what pIC50 value was observed for O=c1[nH]c(=O)c2cc(S(=O)(=O)Nc3ccccc3-c3ccccc3)ccc2[nH]1 ?
Found: 3.86

Lookup: Would you mind telling me what pIC50 value was observed for O=c1[nH]c(=O)c2cc(S(=O)(=O)Nc3ccc(Oc4cccnc4)cc3)ccc2[nH]1 ?
Found: 3.87

Lookup: Would you mind telling me what pIC50 value was observed for O=c1[nH]c(=O)c2cc(S(=O)(=O)NCc3cccc(Cn4ccnc4)c3)ccc2[nH]1 ?
Found: 2.54
